System: tubulin
Assay: Fluorescence-based microtubule polymerization assay (MPA)
Type: biochemical
Conditions: mean percentage of paclitaxel or vinblastine activity; 0.75-10 micromolar
EXPERIMENTAL READOUT: Ave. MPA Act

Sample answers from the record:
CC(=O)O[C@H]1C(=O)[C@]2(C)[C@@H](OC(=O)CCCCCN)C[C@H]3OC[C@@]3(OC(C)=O)[C@H]2[C@H](OC(=O)c2ccccc2)[C@]2(O)C[C@H](OC(=O)[C@H](O)[C@@H](NC(=O)c3ccccc3)c3ccccc3)C(C)=C1C2(C)C [PXL-7Es-ALK(5)-NH2] :: A (A<60)
CC(=O)O[C@@]12CO[C@@H]1C[C@H](O)[C@@]1(C)C(=O)[C@H](OC(=O)CCCCCCNC(=O)OCc3ccccc3)C3=C(C)[C@@H](OC(=O)[C@H](O)[C@@H](NC(=O)c4ccccc4)c4ccccc4)C[C@@](O)([C@@H](OC(=O)c4ccccc4)[C@H]21)C3(C)C [PXL-10Es-Alk(6)-NH(Z)] :: A (A<60)
CC[C@]1(O)C[C@@H]2CN(CCc3c([nH]c4ccccc34)[C@@](C(=O)OC)(c3cc4c(cc3OC)N(C)[C@H]3[C@@](O)(C(=O)NCCCCCCNC(=O)OC(C)(C)C)[C@H](O)[C@]5(CC)C=CCN6CC[C@]43[C@@H]65)C2)C1 [VBL-3Am-ALK(6)-NH(B)] :: A (A<60)
CC[C@]1(O)C[C@@H]2CN(CCc3c([nH]c4ccccc34)[C@@](C(=O)OC)(c3cc4c(cc3OC)N(C)[C@H]3[C@@](O)(C(=O)NCCCCCCn5c(=O)c(C)cn([C@H]6C[C@H](O)[C@@H](COP(=O)(O)O)O6)c5=O)[C@H](O)[C@]5(CC)C=CCN6CC[C@]43[C@@H]65)C2)C1 [VBL-3Am-ALK(6)-N3-PhTHY] :: C (C>100)

Consider the record given below.
Which Ave. MPA Act value is on record for CC[C@]1(O)C[C@@H]2CN(CCc3c([nH]c4ccccc34)[C@@](C(=O)OC)(c3cc4c(cc3OC)N(C)[C@H]3[C@@](O)(C(=O)NCCCn5c(=O)c(C)cn([C@H]6C[C@H](O)[C@@H](CO)O6)c5=O)[C@H](O)[C@]5(CC)C=CCN6CC[C@]43[C@@H]65)C2)C1 [VBL-3Am-ALK(3)-N3-THY] ?
C (C>100)

Origin of the recorded values: patent US20050148534A1
